readout.type: logP
// no unit string in output, number only

## Input Give reported logP value for O=c1[nH]c2ccccc2n1CCCN1CCN(C(c2ccccc2)c2ccccc2)CC1
## Output 2.73

* * *

Experiment: method code SF, from DOI: 10.1063/1.555833
Rule: logP below 2 gives Y. Equal to or above 2 gives N.

## Input Regarding CCc1nn(-c2ccccc2)c(N)c1-c1ccc(OC)c(OC)c1 , kindly confirm whether its logP is beneath 2.
## Output N

## Input Regarding COc1ccc(-c2cn[nH]c2N)cc1OC , kindly confirm whether its logP is beneath 2.
## Output Y

## Input Regarding CCCCN1C(=O)c2ccc([N+](=O)[O-])cc2C1=O , kindly confirm whether its logP is beneath 2.
## Output N

***
## Input Regarding O=C(NCCCCCCNC(=O)c1ccccc1O)c1ccccc1O , kindly confirm whether its logP is beneath 2.
## Output N

## Input Regarding COc1ccc(-c2c(C)noc2N)cc1OC , kindly confirm whether its logP is beneath 2.
## Output Y

## Input Regarding COc1ccc(Cc2nc3ccccc3c(=O)n2N)cc1OC , kindly confirm whether its logP is beneath 2.
## Output Y

## Input Regarding Cc1nn(-c2ccccc2)c(N)c1-c1ccccc1 , kindly confirm whether its logP is beneath 2.
## Output N

## Input Regarding COc1ccc(-c2c(C)n[nH]c2N)cc1OC , kindly confirm whether its logP is beneath 2.
## Output Y

## Input Regarding CCc1n[nH]c(N)c1-c1ccc(OC)c(OC)c1 , kindly confirm whether its logP is beneath 2.
## Output Y

## Input Regarding Cc1cc2c(c3c1[nH]c1ccccc13)C(=O)CC(C)(C)C2 , kindly confirm whether its logP is beneath 2.
## Output N

## Input Regarding COc1ccc(-c2cnoc2N)cc1OC , kindly confirm whether its logP is beneath 2.
## Output Y

## Input Regarding CC(=O)n1cc(C2=C(O)C(C)(C)CCC2=O)c2ccccc21 , kindly confirm whether its logP is beneath 2.
## Output N

## Input Regarding Nc1[nH]nc(Cc2ccccc2)c1-c1ccccc1 , kindly confirm whether its logP is beneath 2.
## Output N

## Input Regarding Nc1c(-c2ccccc2)cnn1-c1ccccc1 , kindly confirm whether its logP is beneath 2.
## Output N

## Input Regarding O=C1Cc2ccccc2C(c2ccc([N+](=O)[O-])cc2)N1 (stereo unspecified) , kindly confirm whether its logP is beneath 2.
## Output N
